- procedure_text: Multi-compound pharmacokinetics of ZJTSD in rat serum, semi-quantitative UPLC-Q/TOF-MS (peak area ratio versus time, non-compartmental)
- condition_info: male, Sprague-Dawley, rat, serum (hepatic portal vein blood), po, 1 mL/100 g body weight, elimination half-life (t1/2), rat hepatic portal vein serum after oral ZJTSD; semi-quantitative peak area ratio
half-life values, listed per item
experimental_readout: half-life (h)

1) O=C(O)CC(O)(CC(=O)O)C(=O)O    21
2) CCCCCCCCCCCCCCCCCC(=O)OC[C@@H](O)COP(=O)([O-])OCC[N+](C)(C)C    21

---

- procedure_text: Multi-compound pharmacokinetics of ZJTSD in rat serum, semi-quantitative UPLC-Q/TOF-MS (peak area ratio versus time, non-compartmental)
- condition_info: male, Sprague-Dawley, rat, serum (hepatic portal vein blood), po, 1 mL/100 g body weight
experimental_readout: MRT last (h)

1) O=Cc1c[nH]c2ccccc12 [P46, Indole-3-carbaldehyde]    12.7
2) O=C(O)C=Cc1ccc(O)cc1 [P37, p-Coumaric acid]    3.97
3) O=C(O)c1ccc(O)cc1 [P41, p-Hydroxybenzoic acid]    9.15
4) CCCCCCCCCCCCCCCCCC(=O)OC[C@@H](O)COP(=O)([O-])OCC[N+](C)(C)C [P45]    9.91
5) CCCCCCCCCCCCCCCCOC[C@@H](O)COP(=O)([O-])OCC[N+](C)(C)C [P44]    11.9
6) N[C@@H](Cc1c[nH]cn1)C(=O)O [P24, Histidine]    9.9
7) COc1c(-c2ccccc2)oc2cc(O)cc(O)c2c1=O [P3, 3-Methoxy-5,7-dihydroxyflavone]    4.8
8) COc1cc(C)c2c(=O)cc(C)oc2c1 [P6, 2,5-Dimethyl-7-methoxychromone]    12.1
9) O=C(O)CC(O)(CC(=O)O)C(=O)O [P40, Citric acid]    9.56
10) COc1cc(-c2coc3cc(O)ccc3c2=O)ccc1O [P10, 7,4'-Dihydroxy-3'-methoxyisoflavone]    10.8
11) Cc1cc(=O)c2c(CC(=O)O)cc(O)cc2o1 [P4]    5.29
12) Cc1cc(O)cc2oc(CC(C)O)cc(=O)c12 (centres unmarked) [P2]    3.45
13) COc1c(O)ccc2c1C(=O)c1ccccc1C2=O [P14, 2-Hydroxy-1-methoxyanthraquinone]    4.24
14) Cc1cc(O)c2c(c1)C(=O)c1cc(O)cc(O)c1C2=O [P16, Emodin]    5.84

---

- procedure_text: Multi-compound pharmacokinetics of ZJTSD in rat serum, semi-quantitative UPLC-Q/TOF-MS (peak area ratio versus time, non-compartmental)
- condition_info: male, Sprague-Dawley, rat, serum (hepatic portal vein blood), po, 1 mL/100 g body weight
Tmax values, listed per item
experimental_readout: Tmax (h)

1. O=C1CCCCN1    12
2. COc1c(O)c(C)cc2c1C(=O)c1ccc(O)cc1C2=O    2.5
3. O=Cc1c[nH]c2ccccc12    12.1
4. N[C@@H](Cc1c[nH]cn1)C(=O)O    2.75
5. C[N+](C)(C)CC(=O)O    6.67
6. C=Cc1ccc(O)c(OC)c1    10.7

---

- procedure_text: Multi-compound pharmacokinetics of ZJTSD in rat serum, semi-quantitative UPLC-Q/TOF-MS (peak area ratio versus time, non-compartmental)
- condition_info: male, Sprague-Dawley, rat, serum (hepatic portal vein blood), po, 1 mL/100 g body weight, t1/2, prototype compounds of ZJTSD absorbed into rat serum; mean±SD, n=3
experimental_readout: half-life (h)

1. Cc1cc(O)c2c(c1)C(=O)c1cc(O)cc(O)c1C2=O [P16, Emodin]    8.19
2. Cc1cc(=O)c2c(C)cc(O)cc2o1 [P1, 2,5-Dimethyl-7-hydroxychromone]    2.7
3. COc1cc2ccc(=O)oc2cc1O [P38, Scopoletin]    4.77
4. COc1c(O)ccc2c1C(=O)c1ccccc1C2=O [P14, 2-Hydroxy-1-methoxyanthraquinone]    3.5
5. O=C(O)c1cc(O)c2c(c1)C(=O)c1cccc(O)c1C2=O [P18, Rhein]    4.7
6. COc1c(-c2ccccc2)oc2cc(O)cc(O)c2c1=O [P3, 3-Methoxy-5,7-dihydroxyflavone]    4.04
7. Cc1cc(=O)c2c(CC(=O)O)cc(O)cc2o1 [P4]    3.14
